These data points were gathered from the RNAGym collection of RNA variant scans (doi:10.1126/science.aae0568).

Form field: yeast fitness (one value per entry).
B1: tRNA (parent)
chain: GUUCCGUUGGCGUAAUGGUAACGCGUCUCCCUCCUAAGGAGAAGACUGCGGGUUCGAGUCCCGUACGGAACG

variants of: B1; test: yeast fitness relative to wild type (ratio to wild type); higher = fitter; tRNA-Arg(CCU), competitive growth, 37 C, YPD
This sample holds only a part of the variants without activity.
Endpoint: yeast fitness

INSERT INTO assay_data (variant_name, relation, obs_value) VALUES
  ('U16C U32G G56C G68A', '≤', 0.5),
  ('A15G G23C A37U A65U', '≤', 0.5),
  ('U8C G48C G52A C66A', '≤', 0.5),
  ('C24G A36G A45G A65U', '≤', 0.5),
  ('C4U C31U A37U G67A G68A', '≤', 0.5),
  ('C29G C33U G68A', '≤', 0.5),
  ('U3G U8C C61G G63C', '≤', 0.5),
  ('U8G U35C A57C', '≤', 0.5),
  ('A14G U19A C55U', '≤', 0.5),
  ('G10A A21U U53A', '=', 0.521),
  ('C11A U47C G51C', '≤', 0.5),
  ('G25C C29G C30U C49G', '=', 0.61),
  ('U7A A70C', '=', 0.817),
  ('C11U A15U', '=', 0.757),
  ('G41C C60U U64G G67A', '≤', 0.5),
  ('G38C G51A G58A', '=', 0.517),
  ('C5U A20U A36G', '=', 0.674),
  ('G6A A14U A15U C31G', '=', 0.668),
  ('U7A G23A G68U', '≤', 0.5),
  ('U3A A20G C55G C61U', '≤', 0.5),
  ('C61A C62U', '=', 0.795),
  ('G12A A43U A45C', '≤', 0.5),
  ('U13C U16G A43U', '=', 1.02),
  ('A14G C29U G39A', '=', 0.574),
  ('C30G A65G', '=', 0.639),
  ('G41C A69U A70G', '=', 0.537),
  ('G10A C29U G44C C60U', '≤', 0.5),
  ('C34A A57G', '=', 0.715),
  ('U16G C46U A65C', '=', 1.13),
  ('C31U A40C C55G G68A A69U', '=', 0.581),
  ('C30U G48A G67A', '≤', 0.5),
  ('G10C G56C', '=', 0.553),
  ('A36G G44A', '=', 0.978),
  ('U2C C24U C29U C30A', '=', 0.59),
  ('A43G U53G C55A G56C A57G G58A U59G C60U A65C', '≤', 0.5),
  ('U28C U54G A57C C62U', '≤', 0.5),
  ('G12C C30A A42G', '=', 0.562),
  ('C5A G9C A40G', '≤', 0.5),
  ('A14G G25A A36U G50A C62G', '≤', 0.5),
  ('A21G U32G', '=', 0.576);
